Sourced from ChEMBL document CHEMBL3045393

System: Lolium perenne
Assay: Post-emergence herbicidal activity against Lolium perenne (perennial ryegrass) at 500 g a.i./ha measured after 15 days
Assay type: functional
valueType: Activity (%)

| compound | studyTarget | reported |
| --- | --- | --- |
| Cc1cc(C)c(C2C(=O)N3CCCCN3C2=O)c(C)c1 | Lolium perenne | 90 |
| Cc1cc(C)c(C2C(=O)N3CC(C)C(C)CN3C2=O)c(C)c1 (stereo not drawn) | Lolium perenne | 80 |
| COC1CN2C(=O)C(c3c(C)cc(C)cc3C)C(=O)N2C1 | Lolium perenne | 20 |
| Cc1cc(C)c(C2C(=O)N3CCC(C)CN3C2=O)c(C)c1 (stereo not drawn) | Lolium perenne | 90 |
| Cc1cc(C)c(C2C(=O)N(C)N(C)C2=O)c(C)c1 | Lolium perenne | 50 |
| Cc1cc(C)c(C2C(=O)N3C[C@H]4CCCC[C@H]4CN3C2=O)c(C)c1 (stereo partly drawn) | Lolium perenne | 90 |
| Cc1cc(C)c(C2C(=O)N3CCCC(C)N3C2=O)c(C)c1 (stereo not drawn) | Lolium perenne | 90 |
| Cc1cc(C)c(C2C(=O)N3CC(C)CN3C2=O)c(C)c1 | Lolium perenne | 60 |
| Cc1cc(C)c(C2C(=O)N3CCCN3C2=O)c(C)c1 | Lolium perenne | 80 |
| Cc1cc(C)c(C2C(=O)N3C[C@H]4CCCC[C@@H]4CN3C2=O)c(C)c1 | Lolium perenne | 60 |
| Cc1cc(C)c(C2C(=O)N3CCC(C)CCN3C2=O)c(C)c1 | Lolium perenne | 80 |
| Cc1cc(C)c(C2C(=O)N3CC(C)(C)CN3C2=O)c(C)c1 | Lolium perenne | 90 |
| Cc1cc(C)c(C2C(=O)N3CCCCCN3C2=O)c(C)c1 | Lolium perenne | 50 |
